Origin of values: patent US20240294509A1

Below: a set of entries, each annotated with reported half-life.
- test_summary: Pharmacokinetic properties in SD rats after single intravenous injection and oral administration
- Assay type: in vivo
- condition_context: rat, plasma; Intravenous injection, 1 mg/kg, SD male rats
Provide only the numeric value, understood in min.

O=C(CC[C@@H]1C[C@@H](F)CN1c1cc(C(F)(F)F)c(=O)[nH]n1)N1CCN(c2ncc(C(F)(F)F)cn2)CC1 [Compound 20] : 49.2
O=C(COC[C@@H]1CCCN1c1cc(C(F)(F)F)c(=O)[nH]n1)N1CCN(c2ncc(C(F)(F)F)cn2)CC1 [Compound 1] : 34.8
C[C@@H](COCCC(=O)N1CCN(c2ncc(C(F)(F)F)cn2)CC1)Nc1cn[nH]c(=O)c1C(F)(F)F [RBN-2397, reference compound] : 20.4
O=C(CC[C@@H]1C[C@H](Oc2ccccc2)CN1c1cc(C(F)(F)F)c(=O)[nH]n1)N1CCN(c2ncc(C(F)(F)F)cn2)CC1 [Compound 19] : 40.8
O=C(CC[C@@H]1C[C@@H](Oc2ccccc2)CN1c1cc(C(F)(F)F)c(=O)[nH]n1)N1CCN(c2ncc(C(F)(F)F)cn2)CC1 [Compound 21] : 30.6

In the following, a different compound is considered.
Request the reported half-life associated with O=C(CC[C@@H]1CCCN1c1cc(C(F)(F)F)c(=O)[nH]n1)N1CCN(c2ncc(C(F)(F)F)cn2)CC1 [Compound 6]
85.8

* * *

- experimental_system: PARP7 (Homo sapiens (Human))
- Sequence (Q7Z3E1 whole entry): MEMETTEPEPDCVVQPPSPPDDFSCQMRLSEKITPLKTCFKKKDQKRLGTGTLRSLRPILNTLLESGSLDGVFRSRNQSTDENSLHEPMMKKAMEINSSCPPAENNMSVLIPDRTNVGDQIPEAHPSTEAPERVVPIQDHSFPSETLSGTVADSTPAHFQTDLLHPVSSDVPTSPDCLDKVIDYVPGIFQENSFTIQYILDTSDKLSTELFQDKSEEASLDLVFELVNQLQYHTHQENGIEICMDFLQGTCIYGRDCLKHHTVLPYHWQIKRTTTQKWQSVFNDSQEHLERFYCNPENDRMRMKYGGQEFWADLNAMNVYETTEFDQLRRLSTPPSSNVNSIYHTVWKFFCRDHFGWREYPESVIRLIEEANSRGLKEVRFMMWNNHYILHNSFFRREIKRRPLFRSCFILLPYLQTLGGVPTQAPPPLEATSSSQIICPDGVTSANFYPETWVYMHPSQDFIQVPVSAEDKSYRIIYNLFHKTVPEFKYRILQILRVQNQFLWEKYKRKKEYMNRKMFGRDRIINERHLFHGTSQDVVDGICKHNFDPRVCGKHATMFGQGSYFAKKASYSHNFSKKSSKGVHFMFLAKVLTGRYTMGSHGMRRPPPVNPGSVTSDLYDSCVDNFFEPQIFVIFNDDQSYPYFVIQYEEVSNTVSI
Could you mark each record 1 if its IC50 falls strictly under 5 nM, and -1 if it equals or exceeds it?

Some solved entries appear below for comparison.
C[C@H]1CC[C@@H](CCC(=O)N2CCN(c3ncc(C(F)(F)F)cn3)CC2)N1c1cc(C(F)(F)F)c(=O)[nH]n1 [Compound 39] : -1
O=C(CC[C@@H]1CC(F)(F)CN1c1cc(C(F)(F)F)c(=O)[nH]n1)N1CCN(c2ncc(C(F)(F)F)cn2)CC1 [Compound 23] : 1
O=C([C@@H]1C[C@H](Oc2ccccc2F)CN1c1cc(C(F)(F)F)c(=O)[nH]n1)N1CCN(c2ncc(C(F)(F)F)cn2)CC1 [Compound 67] : -1
O=C(CC[C@@H]1C[C@@H](O)CN1c1cc(C(F)(F)F)c(=O)[nH]n1)N1CCN(c2ncc(C(F)(F)F)cn2)CC1 [Compound 31] : 1

With those in mind, consider the next molecule.
Is 5 nM strictly greater than the molecule's reported IC50? molecule: O=C(CC[C@@H]1CCCCN1c1cc(C(F)(F)F)c(=O)[nH]n1)N1CCN(c2ncc(C(F)(F)F)cn2)CC1 [Compound 22]
1

* * *

- test_summary: Pharmacokinetic properties in SD rats after single intravenous injection and oral administration
- Assay type: in vivo
- condition_context: rat, plasma; Oral gavage, standardized to a 1 mg/kg dose, SD male rats
Each entry below lists one item and its recorded Cmax value.
Give the quantity in µg/mL, number only.

Item under review: C[C@@H](COCCC(=O)N1CCN(c2ncc(C(F)(F)F)cn2)CC1)Nc1cn[nH]c(=O)c1C(F)(F)F [RBN-2397, reference compound] . Reported Cmax?
0.00555

So what's the measured Cmax for this one? O=C(CC[C@@H]1C[C@@H](Oc2ccccc2)CN1c1cc(C(F)(F)F)c(=O)[nH]n1)N1CCN(c2ncc(C(F)(F)F)cn2)CC1
0.0402

Given the compound O=C(CC[C@@H]1C[C@H](Oc2ccccc2)CN1c1cc(C(F)(F)F)c(=O)[nH]n1)N1CCN(c2ncc(C(F)(F)F)cn2)CC1 , what is its reported Cmax?
0.0151

* * *

Measured F, listed per entry.
- test_summary: Pharmacokinetic properties in SD rats after single intravenous injection and oral administration
- Type: in vivo
- condition_context: Oral gavage, oral bioavailability, SD male rats
Unit % implied. Number only.

C[C@@H](COCCC(=O)N1CCN(c2ncc(C(F)(F)F)cn2)CC1)Nc1cn[nH]c(=O)c1C(F)(F)F [RBN-2397, reference compound] : 3.76
O=C(CC[C@@H]1C[C@@H](Oc2ccccc2)CN1c1cc(C(F)(F)F)c(=O)[nH]n1)N1CCN(c2ncc(C(F)(F)F)cn2)CC1 : 21.18
O=C(CC[C@@H]1C[C@H](Oc2ccccc2)CN1c1cc(C(F)(F)F)c(=O)[nH]n1)N1CCN(c2ncc(C(F)(F)F)cn2)CC1 : 14.34
O=C(CC[C@@H]1C[C@@H](F)CN1c1cc(C(F)(F)F)c(=O)[nH]n1)N1CCN(c2ncc(C(F)(F)F)cn2)CC1 : 15.53
O=C(COC[C@@H]1CCCN1c1cc(C(F)(F)F)c(=O)[nH]n1)N1CCN(c2ncc(C(F)(F)F)cn2)CC1 : 21.97

Please look up its F: O=C(CC[C@@H]1CCCN1c1cc(C(F)(F)F)c(=O)[nH]n1)N1CCN(c2ncc(C(F)(F)F)cn2)CC1
18.1
